- procedureSummary: human hepatoma cell viability loss – ATP luminescence, cytotoxicity control for P. falciparum antimalarial project, primary screen (AID 2303);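 further: 0% = DMSO wells and 100% = digitonin-killed cells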
- conditionSummary: HepG2 viability, 24-48 h, at 10 µM, active compounds read high
The source made the active and inactive calls.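 How the source made its calls: active means inhibition above 50%; inactive means the rest.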
Item-by-item account of inhibition
propertyLabel: inhibition

1) Cc1nc(Nc2ccc(F)cc2)nc(N2CCc3cc(O)ccc3C2C)c1C (centres undefined) : -5% (inactive)
2) CC(C)(C)C1CCc2onc(C(=O)Nc3cc(Cl)ccc3O)c2C1 (centres undefined) : 5% (inactive)
3) CN1CCCC1CCNCc1ccc(-c2ccc(CNCCc3ccccc3)cn2)cc1 (centres undefined) : 25% (inactive)
4) O=C(/C=C/c1ccc(Cl)c(Cl)c1)NCCCCCN1CCC(NC(=O)Nc2cc(Cl)nc(Cl)c2)CC1 : 4% (inactive)
5) CC(C)(C)c1ccc(C(=O)NC2CCC(CCN3CCc4ccc(S(C)(=O)=O)cc4CC3)CC2)cc1C(F)(F)F (centres undefined) : 54% (active)
6) CCCc1ccc(NC(=O)c2cccc(CN3CCCN(Cc4cccc(O)c4)CC3)c2)cc1 : 15% (inactive)
7) CCCN(CCC)C(=S)N=Nc1c(O)[nH]c2ccccc12 : 28% (inactive)
8) CN1CCN(CCCN(Cc2cccc(-c3cccc(CNC4CCCC4)c3)c2)C(=O)/C=C/c2ccccc2)CC1 : 84% (active)
9) COc1ccc(CNc2nc(Nc3cccc(C#N)c3)nc(Nc3cccc(C#N)c3)n2)cc1Cl : -4% (inactive)

---

Item-by-item account of inhibition
- procedureSummary: human hepatoma cell viability loss – ATP luminescence, cytotoxicity control for P. falciparum antimalarial project, primary screen (AID 2303);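 further: 0% = DMSO wells and 100% = digitonin-killed cells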
- conditionSummary: HepG2 viability, 24-48 h, at 10 µM, active compounds read high
propertyLabel: inhibition (%)

1. COc1ccccc1CNC(=O)c1cc(OC)c(OC)cc1NC(=O)c1cccs1 : 12
2. CC1CN(c2ccc(C(=O)NCC3CC3)cc2NC(=O)OCc2ccccc2)CC(C)O1 (centres undefined) : -5
3. N#Cc1ccc(N2CCN(Cc3ccc(-c4ccc(-c5nc6ccc(C(F)(F)F)cc6[nH]5)s4)cc3)CC2)nc1 : 13
4. O=C(NCCOc1ccccc1)[C@H](Cc1ccccc1)Nc1ccnc(NCC2CCCCC2)n1 : 80
5. Cc1cccc(Nc2nccc(NCC(O)c3ccc(C(F)(F)F)cc3)n2)c1 (centres undefined) : 11
6. CCNc1cc(C(=O)N[C@@H](Cc2ccccc2)[C@H](O)CNCc2cc(C#N)ccc2OC)cc(N2CCCC2=O)c1 : -1
7. COc1ccc(N2CCN(CCCCNC(=O)c3ccc(NC(=O)c4ccc(OC(F)(F)F)cc4)cc3)CC2)c(OC)c1 : 36
8. O=C(Nc1ccc(-c2cccc(-c3nc4ccc(F)cc4[nH]3)c2)cc1)c1ccncc1 : 58
9. Cc1cc(C(=O)N[C@H]2CCN(Cc3ccc(OCCCN(C)C)cc3)C2)ccc1Br : 88
10. CCCCCCCn1c(=N)n(CC(O)c2ccc(Cl)c(Cl)c2)c2ccccc21 (centres undefined) : 99
11. O=C(Nc1cccc(-c2ccc(-c3nc4ccc(C(F)(F)F)cc4[nH]3)cc2)c1)Nc1ccc(F)c(F)c1F : 45
12. COc1c(OC)c(OC)c2ccccc2c1CCNCCCCNCCc1c(OC)c(OC)c(OC)c2ccccc12 : 100
13. Cc1cc(NC(c2ccc(Cl)cc2)c2ccc3cccnc3c2O)no1 (centres undefined) : 50
14. O=S(=O)(c1ccccc1Cl)N1CCCCC(c2ccc(C(F)(F)F)cc2)=N1 : 22
15. O=C(N[C@@H](Cc1ccccc1)C(=O)NCCN1CCOCC1)c1ccc(O)c(-c2ccc(Cl)c(Cl)c2)c1 : -4
16. COc1cc(NC(=O)/C=C/c2cccc3cc[nH]c23)ccc1OCCN(C(C)C)C(C)C : 11
17. O=C(CNC1CCCCC1)Nc1cccc(C(=O)Nc2cccc(C(F)(F)F)c2)c1 : 17
18. O=C(Nc1ccc(C(=O)Nc2ccc(C3=NCCN3)cc2)cc1)Nc1ccc(C2=NCCN2)cc1 : -8
19. O=C(NC1CCN(c2ccc(F)cc2[N+](=O)[O-])CC1)c1cccs1 : -9
20. CC(CN1CCN(C)CC1)C(=O)Nc1ccc(-c2ccc(-c3nc4ccc(C(F)(F)F)cc4[nH]3)cc2)cc1 (centres undefined) : 19
21. Cc1ccc2c(c1)c(C1CCN(C(=O)c3ccc([N+](=O)[O-])o3)CC1)cn2C : -6
22. COc1cc(OCCCCCCON2C(N)=NC(N)=NC2(C)C)cc(OC)c1OC : 41
23. CN1CCCC(CN2CCN(Cc3cccc(-c4ccc(-c5nc6ccccc6[nH]5)s4)c3)CC2)C1 (centres undefined) : 52
24. COc1ccc(Nc2nccc(N3CCC(NS(=O)(=O)c4ccc(NC(C)=O)cc4)C3)n2)cc1 (centres undefined) : 3
25. CC(C(=O)Nc1ccc(Br)cc1Br)N1CCN(C(=O)c2ccco2)CC1 (centres undefined) : 3
26. Cc1ccc(CNc2cc(C(F)(F)F)nc(-c3ccc(S(C)(=O)=O)cc3)n2)cc1 : 2
27. Cc1ccc(NC(=O)NC2CCN(c3ccnc4ccccc34)CC2)cc1 : 21
28. COC(=O)c1cccc(CNCc2ccc(-c3ccc(-c4nc5ccc(F)cc5[nH]4)cc3)cc2)c1 : 8
29. CCCOc1cc(O)c(-c2n[nH]c(C)c2Oc2ccccc2)cc1CC : -14
30. CN1CCC(NCc2cccc(-c3ccc(S(=O)(=O)NCCN4CCCC4)s3)c2)CC1 : 10
31. COc1ccc(NC(=O)Nc2cccc(-c3ccc(-c4nc5ccc(C(F)(F)F)cc5[nH]4)cc3)c2)cc1 : 46
32. COc1cc(C2=NN(S(=O)(=O)c3c(Cl)cc(Cl)cc3Cl)CCCC2)ccc1Cl : 3
33. CCOc1ccc2c(NN=Cc3cccc(F)c3)cc(C)nc2c1 : 0
34. Cc1ccc(NC(=O)c2ccc3ncccc3c2)cc1OC1CCN(C(C)C)C1 (centres undefined) : 12
35. Cc1cccc(NC(=O)c2cnc(N3CCN(c4ccncc4)CC3)c(Cl)c2)c1 : 36
36. Cc1ccccc1C1CCN(C2CCC(NC(=O)c3cc4cc(Cl)ccc4o3)CC2)CC1 (centres undefined) : 22
37. CCn1c(-c2ccccc2)cc2nnc3ccccc3c21 : 34
38. COc1ccc(NC(=O)[C@H](Cc2ccccc2)Nc2cc(C)nc(NCC3CCCCC3)n2)cc1 : 9
39. COc1ccc(C=NNc2ccnc3cc(F)c(C)cc23)c2ccccc12 : -6

Cited source for all entries: PubChem BioAssay
